Target: Arginase-2, mitochondrial (Homo sapiens) (UniProt P78540)
Sequence (whole entry): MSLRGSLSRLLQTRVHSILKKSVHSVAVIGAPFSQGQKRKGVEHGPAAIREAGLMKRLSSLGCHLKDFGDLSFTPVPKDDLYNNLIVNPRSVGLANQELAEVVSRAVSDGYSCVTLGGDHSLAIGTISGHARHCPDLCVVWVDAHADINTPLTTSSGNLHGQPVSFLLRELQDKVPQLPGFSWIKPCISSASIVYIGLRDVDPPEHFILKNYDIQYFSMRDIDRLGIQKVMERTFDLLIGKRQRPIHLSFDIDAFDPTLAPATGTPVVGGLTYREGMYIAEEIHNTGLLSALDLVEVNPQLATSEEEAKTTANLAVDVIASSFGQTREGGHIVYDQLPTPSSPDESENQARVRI
Assay: in vitro enzyme assay to detect the production of urea directly proportional to the activity of Arginase II; note: in the data most compounds retested in dose-response had high values
Type: functional
Parameters: scale not given: direction of the effect not stated beside the values
Conditions: 33.3 µM
Recorded Percent Effect by entry
Reported property: Percent Effect (%)

| Compound | Reported property | Readout units | Measurement |
| --- | --- | --- | --- |
| CC(C)c1ncncc1C(=O)N1CCCN(Cc2cccs2)CC1 | Percent Effect | % | -6.47 |
| Cc1nc(COC[C@@H]2CC[C@H]3[C@H](CCN3S(C)(=O)=O)O2)cs1 | Percent Effect | % | 7.96 |
| NCC1CN(c2nc(-c3ccccc3)nc3c2CCNCC3)CCO1 (stereo not drawn) | Percent Effect | % | 0.798 |
| Cc1occc1C(=O)N1CCC2(CC1)C(c1cnn(C)c1)CC(=O)N2C (stereo not drawn) | Percent Effect | % | 1.59 |
| CC(NC(=O)c1cc(-c2cccc(Cl)c2)no1)C(=O)N1CCCC1 (stereo not drawn) | Percent Effect | % | -2.37 |
| O=S(=O)(CCNCc1cccc2c1OCCO2)N1CCOCC1 | Percent Effect | % | -0.476 |
| O=c1cc(Cn2ccnc2)nc2n1CCCN(Cc1ccsc1)C2 | Percent Effect | % | -6.51 |
| CNc1nc(CNC(=O)Nc2ccccc2SC)cs1 | Percent Effect | % | 3.83 |

---

biological target: Ubiquitin-activating enzyme e1, putative (Leishmania donovani (strain BPK282A1)); test: Leishmania donovani Ubiquitin Activating Enzyme (LdE1); type: functional; design: scale not given: direction of the effect not stated beside the values; settings: 30 µM
Entries with a potency or affinity are not part of this list.
Recorded Percent Effect by entry

| Compound | Experimental target | Readout units | Percent Effect |
| --- | --- | --- | --- |
| Cn1cc2c(n1)C(CNC(=O)Cc1ccsc1)OCC2 (stereo unspecified) | Ubiquitin-activating enzyme e1, putative (Leishmania donovani (strain BPK282A1)) | % | 7.79 |
| CNc1cc(C)nc(C2CN(Cc3cc[nH]n3)CCO2)c1 (stereo unspecified) | Ubiquitin-activating enzyme e1, putative (Leishmania donovani (strain BPK282A1)) | % | 1.35 |
| c1csc(-c2nc(CN3CCCC3Cn3cncn3)co2)c1 (stereo unspecified) | Ubiquitin-activating enzyme e1, putative (Leishmania donovani (strain BPK282A1)) | % | -5.48 |
| O=C1NC(c2ccccc2)=N[C@@]12CC[C@@H]1CN(Cc3ccco3)C[C@@H]12 | Ubiquitin-activating enzyme e1, putative (Leishmania donovani (strain BPK282A1)) | % | 5.33 |
| O=C(CC1=CCCCC1)NCCc1csc(N2CCCC2)n1 | Ubiquitin-activating enzyme e1, putative (Leishmania donovani (strain BPK282A1)) | % | -5.33 |
| CNC(=O)CC1CC2(CCN(Cc3nccs3)CC2)c2ccccc21 (stereo unspecified) | Ubiquitin-activating enzyme e1, putative (Leishmania donovani (strain BPK282A1)) | % | 16.2 |
| O=c1[nH]c(CN(Cc2ccco2)C2CCCC2)nc2ccccc12 | Ubiquitin-activating enzyme e1, putative (Leishmania donovani (strain BPK282A1)) | % | 18.2 |
| c1ccc(-c2nc(CN3CCCC(Cn4cncn4)C3)no2)cc1 (stereo unspecified) | Ubiquitin-activating enzyme e1, putative (Leishmania donovani (strain BPK282A1)) | % | -3.8 |
| CCc1nnc(CN(C)c2nc(C3CCCC3)nc3c2cnn3C)o1 | Ubiquitin-activating enzyme e1, putative (Leishmania donovani (strain BPK282A1)) | % | 4.17 |
| O=C(NC(CO)CO)c1coc(COc2cccc(F)c2)n1 | Ubiquitin-activating enzyme e1, putative (Leishmania donovani (strain BPK282A1)) | % | 18.9 |
| CN1C(=O)CC(c2cnn(C)c2)C12CCN(C(=O)C1CC=CC1)CC2 (stereo unspecified) | Ubiquitin-activating enzyme e1, putative (Leishmania donovani (strain BPK282A1)) | % | -2.7 |
| CCN1CCn2c(C)cnc2C12CCN(C(=O)CC(C)C)CC2 | Ubiquitin-activating enzyme e1, putative (Leishmania donovani (strain BPK282A1)) | % | 10.7 |
| CNC(=O)c1cnc(/C=C/c2cc(OC)cc(OC)c2)s1 | Ubiquitin-activating enzyme e1, putative (Leishmania donovani (strain BPK282A1)) | % | -5.41 |
| CC(C)N(CC(N)=O)Cc1csc(Cc2ccccc2)n1 | Ubiquitin-activating enzyme e1, putative (Leishmania donovani (strain BPK282A1)) | % | 12.7 |
| Cc1nc(N2CCN(C(=O)c3ccsc3)CC2)c2cnn(C)c2n1 | Ubiquitin-activating enzyme e1, putative (Leishmania donovani (strain BPK282A1)) | % | 2.7 |
| CCn1c(CN2CCN(CC(N)=O)CC2)nc2c(F)cccc21 | Ubiquitin-activating enzyme e1, putative (Leishmania donovani (strain BPK282A1)) | % | 5.26 |
